Each entry below carries its reported Population Normal (%).
Test system: Fibroblast
experiment.notes: Multiplex assay against human fibroblast
Type: toxicity, cell-based
run.parameters: 12 h, 1 µM, compound concentration 1 uM, replicate 2
Please format your answer as a value with the unit trailing.

Worked examples follow.
>  <substance.smiles>
CNc1cc(Oc2cc(C(=O)Nc3cc(N4CCN(C)CC4)cc(C(F)(F)F)c3)ccc2C)ncn1

>  <Population Normal (%)>
97%

$$$$
>  <substance.smiles>
Cn1nc(C(F)(F)F)cc1-c1cnc(N2CCc3cc(S(=O)(=O)Nc4c(F)cc(Cl)cc4F)cc(N4CCCC4=O)c32)nc1

>  <Population Normal (%)>
65%

$$$$
>  <substance.smiles>
CCc1cccc(CC)c1NC(=O)c1nn(C)c2c1CCc1cnc(Nc3ccc(C(=O)NC4CCN(C)CC4)cc3OC(F)(F)F)nc1-2

>  <Population Normal (%)>
86%

$$$$
>  <substance.smiles>
Cl.Oc1ccc2c3c1O[C@H]1c4[nH]c5c(c4C[C@@]4(O)[C@@H](C2)N(CC2CC2)CC[C@]314)C[C@@]1(O)[C@H]2Cc3ccc(O)c4c3[C@@]1(CCN2CC1CC1)[C@H]5O4

>  <Population Normal (%)>
90%

$$$$
>  <substance.smiles>
CCCS(=O)(=O)Nc1ccc(F)c(C(=O)c2c[nH]c3ncc(Cl)cc23)c1F

>  <Population Normal (%)>
70%

$$$$

Recorded Population Normal (%) for COC(=N)c1nc2ccc3ncnc(Nc4ccc(OC)cc4F)c3c2s1 , please?
66%

Now this one: CCN1CCN(Cc2ccc(Nc3ncc(F)c(-c4cc(F)c5nc(C)n(C(C)C)c5c4)n3)nc2)CC1.CS(=O)(=O)O
93%
